Listed compounds paired with reported DC50
biological target: IRAK4 (Homo sapiens); construct: Degradation of IRAK4 in OCI-LY10 was quantitatively measured using Meso Scale Discovery technology; endogenous in cells; host or cells: OCI-LY10; assay: IRAK4 MSD Degradation in OCI-LY10; format: cell-based; details: OCI-LY10 cells, 24 hrs incubation, MSD; read-out: IRAK4 degradation in OCI-LY10 at 24 hrs: DC50

compound="Cn1c(=O)n(C2CCC(=O)NC2=O)c2cccc(N3CCC(C[C@H]4CC[C@H](n5cc6cc(NC(=O)c7cccc(C(F)(F)F)n7)ncc6n5)CC4)CC3)c21 (stereo partly shown) [I-777]" result="> 0.2 µM"
compound="O=C1CCC(c2ccc(C#CCOC3CCN(C[C@H]4CC[C@H](n5cc(NC(=O)c6cnn7ccc(N8C[C@H]9C[C@@H]8CO9)nc67)c(C(F)F)n5)CC4)CC3)cc2)C(=O)N1 (stereo partly shown) [I-198]" result="0.01 to 0.1 µM"
compound="Cn1c(=O)n(C2CCC(=O)NC2=O)c2cccc(C3CCN(C[C@H]4CC[C@H](n5cc6cc(NC(=O)c7cccc(C(F)F)n7)c(C(C)(C)O)cc6n5)CC4)CC3(F)F)c21 (stereo partly shown) [I-619]" result="< 0.01 µM"
compound="Cn1c(=O)n(C2CCC(=O)NC2=O)c2cccc(N3CCC(O[C@H]4CC[C@H](n5cc6cc(NC(=O)c7cccc(C(F)(F)F)n7)ncc6n5)CC4)C3)c21 (stereo partly shown) [I-793]" result="> 0.2 µM"
compound="CN(C[C@H]1CC[C@H](n2cc(NC(=O)c3cnn4ccc(N5CCC6(CC5)CC6)nc34)c(C(F)F)n2)CC1)C1CCN(c2cccc3c2n(C)c(=O)n3C2CCC(=O)NC2=O)CC1 (stereo partly shown) [I-272]" result="< 0.01 µM"

Problem: If you can, please state the reported DC50 value of Cn1c(=O)n(C2CCC(=O)NC2=O)c2cccc([C@@H]3CCN(C[C@H]4CC[C@H](n5cc6cc(NC(=O)c7cccc(C(F)F)n7)ncc6n5)CC4)C[C@H]3F)c21 (stereo partly shown) [I-641] .
Solution: < 0.01 µM

Problem: If you can, please state the reported DC50 value of O=C1CCN(c2cccc(C#CCN3CCN(C[C@H]4CC[C@H](n5cc(NC(=O)c6cnn7ccc(N8C[C@H]9C[C@@H]8CO9)nc67)c(C(F)F)n5)CC4)CC3)c2)C(=O)N1 [I-123] .
Solution: > 0.2 µM

----------
Target: IRAK4 (Homo sapiens)
Construct: Degradation of IRAK4 in OCI-LY10 was quantitatively measured using Meso Scale Discovery technology; endogenous in cells; host or cells: OCI-LY10
Sequence (Q9NWZ3 1-460): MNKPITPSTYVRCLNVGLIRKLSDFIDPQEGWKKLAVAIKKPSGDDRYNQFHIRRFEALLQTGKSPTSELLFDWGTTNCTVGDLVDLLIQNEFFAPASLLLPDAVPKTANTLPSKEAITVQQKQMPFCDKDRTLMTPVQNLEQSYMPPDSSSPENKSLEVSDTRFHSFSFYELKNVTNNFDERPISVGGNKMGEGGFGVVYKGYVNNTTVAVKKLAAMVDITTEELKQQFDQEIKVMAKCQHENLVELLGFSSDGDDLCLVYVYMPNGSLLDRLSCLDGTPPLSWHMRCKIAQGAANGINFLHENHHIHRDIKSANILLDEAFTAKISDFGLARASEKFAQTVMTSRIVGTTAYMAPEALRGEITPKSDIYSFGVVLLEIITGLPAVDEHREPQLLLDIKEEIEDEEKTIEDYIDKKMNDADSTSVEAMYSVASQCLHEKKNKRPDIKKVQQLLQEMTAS
Experiment: IRAK4 MSD Degradation in OCI-LY10
Type: cell-based
Settings: OCI-LY10 cells, 4 hrs incubation, MSD; read-out: IRAK4 degradation in OCI-LY10 at 4 hrs: DC50
readout: DC50

Problem: If you can, please state the reported DC50 value of Cn1c(=O)n(C2CCC(=O)NC2=O)c2cccc(C#CCC3CCN(C[C@H]4CC[C@H](n5cc(NC(=O)c6cnn7ccc(N8C[C@H]9C[C@@H]8CO9)nc67)c(C(F)F)n5)CC4)CC3(F)F)c21 (stereo partly shown) [I-374] .
Solution: 10 to 100 nM

Problem: If you can, please state the reported DC50 value of Cn1c(=O)n(C2CCC(=O)NC2=O)c2cccc(CC[C@@H]3CN(Cc4ccc(-n5cc(NC(=O)c6cnn7cccnc67)c(C(F)F)n5)cc4)CCO3)c21 (stereo partly shown) [I-398] .
Solution: > 200 nM

Problem: If you can, please state the reported DC50 value of Cc1nn([C@H]2CC[C@H](CN3CCC(OCC#Cc4cccc5c4n(C)c(=O)n5C4CCC(=O)NC4=O)CC3)CC2)cc1NC(=O)c1cnn2ccc(N3C[C@H]4C[C@@H]3CO4)nc12 (stereo partly shown) [I-168] .
Solution: > 200 nM

Problem: If you can, please state the reported DC50 value of C[C@H]1CN(c2ccn3ncc(C(=O)Nc4cn([C@H]5CC[C@H](CN(C)C6CCN(c7cccc8c7n(C)c(=O)n8C7CCC(=O)NC7=O)CC6(F)F)CC5)nc4C(F)F)c3n2)C[C@H](C)O1 (stereo partly shown) [I-533] .
Solution: > 200 nM

Problem: If you can, please state the reported DC50 value of Cn1c(=O)n(C2CCC(=O)NC2=O)c2cccc(C#CCOC3CCN(C[C@H]4CC[C@H](c5ccc(NC(=O)c6cnn7ccc(N8C[C@H]9C[C@@H]8CO9)nc67)c(C(F)F)n5)CC4)CC3)c21 (stereo partly shown) [I-181] .
Solution: > 200 nM

----------
molecular target: IRAK4 (Homo sapiens, UniProt Q9NWZ3); construct: Degradation of IRAK4 in OCI-LY10 was quantitatively measured using Meso Scale Discovery technology; endogenous in cells; host or cells: OCI-LY10; assay: IRAK4 MSD Degradation in OCI-LY10; format: cell-based; conditions: OCI-LY10 cells, 4 hrs incubation, MSD; read-out: IRAK4 degradation in OCI-LY10 at 4 hrs: DC50
readout: DC50

Below, each entry is followed by its recorded DC50 result.
compound="Cn1c(=O)n(C2CCC(=O)NC2=O)c2cccc(N3CCN(C[C@H]4CC[C@H](n5cc(NC(=O)c6cnn7cccnc67)c(C(F)F)n5)CC4)CC3)c21 (stereo partly shown)" target_of_assay="IRAK4 (Homo sapiens, UniProt Q9NWZ3)" result="> 200 nM"
compound="Cn1c(=O)n(C2CCC(=O)NC2=O)c2cccc(C#CC[C@@H]3CN(C[C@H]4CC[C@H](n5cc(NC(=O)c6cnn7ccc(N8C[C@H]9C[C@@H]8CO9)nc67)c(C(F)F)n5)CC4)CCO3)c21 (stereo partly shown)" target_of_assay="IRAK4 (Homo sapiens, UniProt Q9NWZ3)" result="10 to 100 nM"
compound="Cn1c(=O)n(C2CCC(=O)NC2=O)c2cccc(N3CC(COC4CN(C[C@H]5CC[C@H](n6cc(NC(=O)c7cnn8ccc(N9C[C@H]%10C[C@@H]9CO%10)nc78)c(C(F)F)n6)CC5)C4)C3)c21 (stereo partly shown)" target_of_assay="IRAK4 (Homo sapiens, UniProt Q9NWZ3)" result="> 200 nM"
compound=O=C1CCN(c2cncc3cc(C#CCOC4CCN(C[C@H]5CC[C@H](n6cc(NC(=O)c7cnn8ccc(N9C[C@H]%10C[C@@H]9CO%10)nc78)c(C(F)F)n6)CC5)CC4)ccc23)C(=O)N1 target_of_assay="IRAK4 (Homo sapiens, UniProt Q9NWZ3)" result="> 200 nM"
compound="COc1cc2nn([C@H]3CC[C@H](CN4CCC(c5cccc6c5n(C)c(=O)n6C5CCC(=O)NC5=O)C(F)C4)CC3)cc2cc1NC(=O)c1cccc(C(F)(F)F)n1 (stereo partly shown)" target_of_assay="IRAK4 (Homo sapiens, UniProt Q9NWZ3)" result="> 200 nM"
compound="O=C1CCC(c2cccc3c(C#CCN4CCN(C[C@H]5CC[C@@H](n6cc(NC(=O)c7cnn8ccc(N9C[C@H]%10C[C@@H]9CO%10)nc78)c(C(F)F)n6)CC5)CC4)cccc23)C(=O)N1 (stereo partly shown)" target_of_assay="IRAK4 (Homo sapiens, UniProt Q9NWZ3)" result="> 200 nM"
compound="Cn1c(=O)n(C2CCC(=O)NC2=O)c2cccc([C@H]3CCN(C[C@H]4CC[C@H](n5cc6cc(NC(=O)c7cccc(C#N)n7)c(C(C)(C)O)cc6n5)CC4)C[C@@H]3F)c21 (stereo partly shown)" target_of_assay="IRAK4 (Homo sapiens, UniProt Q9NWZ3)" result="> 200 nM"
compound="Cn1c(=O)n(C2CCC(=O)NC2=O)c2cccc(OC3CCN([C@H]4CC[C@H](n5cc6cc(NC(=O)c7cccc(C(F)(F)F)n7)ncc6n5)CC4)CC3(F)F)c21 (stereo partly shown)" target_of_assay="IRAK4 (Homo sapiens, UniProt Q9NWZ3)" result="> 200 nM"
compound="CN(C[C@H]1CC[C@H](n2cc(NC(=O)c3cnn4ccc(N5CC(C)(C)OC(C)(C)C5)nc34)c(C(F)F)n2)CC1)C1CCN(c2cccc3c2n(C)c(=O)n3C2CCC(=O)NC2=O)CC1 (stereo partly shown)" target_of_assay="IRAK4 (Homo sapiens, UniProt Q9NWZ3)" result="10 to 100 nM"
compound="Cn1c(=O)n(C2CCC(=O)NC2=O)c2cccc(C#CCOC3CCN(C[C@H]4CC[C@H](n5cc(NC(=O)c6cnn7ccc(N8CC9(CCOCC9)C8)nc67)c(C(F)F)n5)CC4)CC3)c21 (stereo partly shown)" target_of_assay="IRAK4 (Homo sapiens, UniProt Q9NWZ3)" result="10 to 100 nM"

Problem: If you can, please state the reported DC50 value of Cn1c(=O)n(C2CCC(=O)NC2=O)c2cccc(C#CCN3CCN(C[C@H]4CC[C@H](n5cc(NC(=O)c6cnn7ccc(N8CCCCC8)nc67)c(C(F)F)n5)CC4)CC3)c21 (stereo partly shown) .
Solution: 10 to 100 nM

Problem: If you can, please state the reported DC50 value of Cn1c(=O)n(C2CCC(=O)NC2=O)c2ccc(N3CC(CN4CCN(C[C@H]5CC[C@H](n6cc(NC(=O)c7cnn8ccc(N9C[C@H]%10C[C@@H]9CO%10)nc78)c(C(F)F)n6)CC5)CC4)C3)c(F)c21 (stereo partly shown) .
Solution: > 200 nM

Problem: If you can, please state the reported DC50 value of Cn1c(=O)n(C2CCC(=O)NC2=O)c2cccc(C3CCN(CC4CCC(n5cc6cc(NC(=O)c7cnn8ccc(N9CC%10CC9CO%10)cc78)ncc6n5)CC4)CC3(F)F)c21 (stereo not shown) .
Solution: > 200 nM

Entry source: patent US12091411B2
